Test: in vitro
Conditions: human, microsomes, pH 7.4, Microsome Clint Human, intrinsic in vitro clearance, liver microsomes
Parameter: log10 of microsomal CLint at 0.5 h, 0.5 µM (log10 of the value in µL/min/mg)
log10 microsomal CLint at 0.5 h, 0.5 µM, µL/min/mg

Would you please look over these solved cases?
{"Compound": "COc1ccc(S(N)(=O)=O)cc1S(=O)(=O)N(Cc1ccccc1)Cc1ccccc1", "Measured number": 1.97}
{"Compound": "N#Cc1ccccc1S(=O)(=O)N(Cc1ccccc1)Cc1ccccc1", "Measured number": 2.84}
{"Compound": "CS(=O)(=O)c1ccccc1S(=O)(=O)N(Cc1ccccc1)Cc1ccccc1", "Measured number": 2.62}

Inquiry: Tell us which log10 of microsomal CLint at 0.5 h, 0.5 µM value is on record for COCCOCN1CNc2cc(OC)c(S(=O)(=O)N(Cc3ccccc3)Cc3ccccc3)cc2S1(=O)=O
Reply text: 2.71

Inquiry: Annotate the compound COc1ccc([S+](C)[O-])cc1S(=O)(=O)N(Cc1ccccc1)Cc1ccccc1 (stereo not drawn) with its measured log10 of microsomal CLint at 0.5 h, 0.5 µM.
Reply text: 2.37

Inquiry: State its log10 of microsomal CLint at 0.5 h, 0.5 µM: N#Cc1ccc(O)c(S(=O)(=O)N(Cc2ccc(F)cc2)Cc2ccc(F)cc2)c1
Reply text: 1.44

---

The entries below come with measured Papp values attached.
Test: in vitro
Conditions: PAMPA
I only need the number, in ×10⁻⁶ cm/s, no unit after it.

These recorded examples may help you get a feel for the data.
{"Compound": "COc1ccc(Cl)cc1S(=O)(=O)N(Cc1ccccc1)OC [DNDI0003364476]", "Papp (×10⁻⁶ cm/s)": 5.91}
{"Compound": "CCN(Cc1ccccc1)S(=O)(=O)c1cc(Cl)ccc1OC [DNDI0003364251]", "Papp (×10⁻⁶ cm/s)": 3.74}
{"Compound": "CCN(Cc1ccccc1)S(=O)(=O)c1ccccc1C#N [DNDI0002574585]", "Papp (×10⁻⁶ cm/s)": 16.6}

Inquiry: Write down Papp measured for item CCN(Cc1ccccc1)S(=O)(=O)c1ccc(OC)cc1 [DNDI0003297130]
Reply text: 7.68

---

Tested on: primary peritoneal mouse macrophages (PMM)
Experiment: cells
Details: Macrophage, read-out: PMM pIC50 (converted)
IC50 values for the compounds below.

{"Compound": "COc1ccccc1S(=O)(=O)N(Cc1ccccc1)Cc1ccccc1 [Compound 10]", "Measured target": "primary peritoneal mouse macrophages (PMM)", "IC50": "> 64.6 µM"}
{"Compound": "N#Cc1ccc(O)c(S(=O)(=O)N(Cc2ccc(F)cc2)Cc2ccc(F)cc2)c1 [Compound 16]", "Measured target": "primary peritoneal mouse macrophages (PMM)", "IC50": "45.7 µM"}

Inquiry: // Input: COc1ccc(OC)c(S(=O)(=O)N(Cc2ccc(F)cc2)Cc2ccnn2C)c1 [Compound 35] . Output its IC50 only.
Reply text: 45.7 µM

Inquiry: Supply reported IC50 belonging to this compound: COc1ccc(C#N)cc1S(=O)(=O)N(Cc1ccc(F)cc1)C1CCOCC1 [Compound 43]
Reply text: > 64.6 µM

Inquiry: Supply reported IC50 belonging to this compound: COc1ccc(C(=O)N2CCOCC2)cc1S(=O)(=O)N(Cc1ccccc1)Cc1ccccc1 [Compound 22]
Reply text: 45.7 µM

Inquiry: Quote IC50 reported for N#Cc1ccccc1S(=O)(=O)N(Cc1ccccc1)Cc1ccccc1 [Compound 13] please.
Reply text: > 64.6 µM

Inquiry: Provide measured IC50 value, entry: COc1ccc(C(N)=O)cc1S(=O)(=O)N(Cc1ccccc1)Cc1ccccc1 [Compound 21]
Reply text: > 64.6 µM

Inquiry: Supply IC50 value. Item: CCN(Cc1ccccc1)S(=O)(=O)c1cc(OC)ccc1OC [Compound 38]
Reply text: > 64.6 µM

These measurements were taken from paper PMC8126888.
